Data origin: BigSolDB 2.1

Conditions: in DMSO, 293.15 K
VALUE_KIND: solubility (mole fraction)

>>> recorded_result("On1nnc2ccccc21")
0.0664

---

Details: in ethanol, 293.15 K
VALUE_KIND: solubility (mole fraction)

>>> recorded_result("On1nnc2ccccc21")
0.0462

---

Details: in DMF, 310.65 K
VALUE_KIND: solubility (mole fraction)

>>> recorded_result("On1nnc2ccccc21")
0.164

---

Settings: in DMSO, 298.15 K
VALUE_KIND: solubility (mole fraction)

>>> recorded_result("On1nnc2ccccc21")
0.082

---

Conditions: in isopentanol, 283.15 K
VALUE_KIND: solubility (mole fraction)

>>> recorded_result("On1nnc2ccccc21")
0.0118

---

Conditions: in 2-butanone, 308.15 K
VALUE_KIND: solubility (mole fraction)

>>> recorded_result("On1nnc2ccccc21")
0.0372

---

Details: in acetonitrile, 290.65 K
VALUE_KIND: solubility (mole fraction)

>>> recorded_result("On1nnc2ccccc21")
0.00348

---

Details: in n-propanol, 288.15 K
VALUE_KIND: solubility (mole fraction)

>>> recorded_result("On1nnc2ccccc21")
0.0387

---

Settings: in n-heptanol, 288.15 K
VALUE_KIND: solubility (mole fraction)

>>> recorded_result("On1nnc2ccccc21")
0.014

---

Details: in isooctanol, 293.15 K
VALUE_KIND: solubility (mole fraction)

>>> recorded_result("On1nnc2ccccc21")
0.0132

---

Details: in n-hexanol, 313.15 K
VALUE_KIND: solubility (mole fraction)

>>> recorded_result("On1nnc2ccccc21")
0.0206

---

Conditions: in n-heptanol, 280.65 K
VALUE_KIND: solubility (mole fraction)

>>> recorded_result("On1nnc2ccccc21")
0.0123

---

Conditions: in 2-butanone, 313.15 K
VALUE_KIND: solubility (mole fraction)

>>> recorded_result("On1nnc2ccccc21")
0.0433

---

Settings: in ethanol, 285.65 K
VALUE_KIND: solubility (mole fraction)

>>> recorded_result("On1nnc2ccccc21")
0.0377

---

Details: in n-heptanol, 298.15 K
VALUE_KIND: solubility (mole fraction)

>>> recorded_result("On1nnc2ccccc21")
0.0165

---

Conditions: in acetonitrile, 313.15 K
VALUE_KIND: solubility (mole fraction)

>>> recorded_result("On1nnc2ccccc21")
0.00749

---

Conditions: in ethyl acetate, 300.65 K
VALUE_KIND: solubility (mole fraction)

>>> recorded_result("On1nnc2ccccc21")
0.013

---

Details: in 2-butanone, 300.65 K
VALUE_KIND: solubility (mole fraction)

>>> recorded_result("On1nnc2ccccc21")
0.0299

---

Details: in DMF, 293.15 K
VALUE_KIND: solubility (mole fraction)

>>> recorded_result("On1nnc2ccccc21")
0.0794

---

Conditions: in acetone, 313.15 K
VALUE_KIND: solubility (mole fraction)

>>> recorded_result("On1nnc2ccccc21")
0.0383

---

Settings: in isopropanol, 283.15 K
VALUE_KIND: solubility (mole fraction)

>>> recorded_result("On1nnc2ccccc21")
0.0281

---

Settings: in ethanol, 283.15 K
VALUE_KIND: solubility (mole fraction)

>>> recorded_result("On1nnc2ccccc21")
0.0355

---

Settings: in toluene, 313.15 K
VALUE_KIND: solubility (mole fraction)

>>> recorded_result("On1nnc2ccccc21")
"6.92e-05"

---

Conditions: in DMF, 285.65 K
VALUE_KIND: solubility (mole fraction)

>>> recorded_result("On1nnc2ccccc21")
0.0587

---

Conditions: in 2-butanone, 298.15 K
VALUE_KIND: solubility (mole fraction)

>>> recorded_result("On1nnc2ccccc21")
0.0278

---

Conditions: in n-heptanol, 303.15 K
VALUE_KIND: solubility (mole fraction)

>>> recorded_result("On1nnc2ccccc21")
0.0182

---

Conditions: in ethyl acetate, 303.15 K
VALUE_KIND: solubility (mole fraction)

>>> recorded_result("On1nnc2ccccc21")
0.0149

---

Conditions: in methanol, 285.65 K
VALUE_KIND: solubility (mole fraction)

>>> recorded_result("On1nnc2ccccc21")
0.0274

---

Conditions: in ethyl acetate, 283.15 K
VALUE_KIND: solubility (mole fraction)

>>> recorded_result("On1nnc2ccccc21")
0.00606

---

Details: in ethyl acetate, 298.15 K
VALUE_KIND: solubility (mole fraction)

>>> recorded_result("On1nnc2ccccc21")
0.0115

---

Conditions: in ethanol, 313.15 K
VALUE_KIND: solubility (mole fraction)

>>> recorded_result("On1nnc2ccccc21")
0.0802

---

Details: in 2-butanone, 293.15 K
VALUE_KIND: solubility (mole fraction)

>>> recorded_result("On1nnc2ccccc21")
0.0241

---

Details: in ethanol, 303.15 K
VALUE_KIND: solubility (mole fraction)

>>> recorded_result("On1nnc2ccccc21")
0.0605

---

Conditions: in n-hexanol, 280.65 K
VALUE_KIND: solubility (mole fraction)

>>> recorded_result("On1nnc2ccccc21")
0.0118

---

Settings: in DMSO, 288.15 K
VALUE_KIND: solubility (mole fraction)

>>> recorded_result("On1nnc2ccccc21")
0.0529

---

Conditions: in isopropanol, 288.15 K
VALUE_KIND: solubility (mole fraction)

>>> recorded_result("On1nnc2ccccc21")
0.032

---

Conditions: in n-hexanol, 285.65 K
VALUE_KIND: solubility (mole fraction)

>>> recorded_result("On1nnc2ccccc21")
0.0129

---

Conditions: in methanol, 313.15 K
VALUE_KIND: solubility (mole fraction)

>>> recorded_result("On1nnc2ccccc21")
0.0609

---

Conditions: in DMSO, 303.15 K
VALUE_KIND: solubility (mole fraction)

>>> recorded_result("On1nnc2ccccc21")
0.103

---

Settings: in ethanol, 278.15 K
VALUE_KIND: solubility (mole fraction)

>>> recorded_result("On1nnc2ccccc21")
0.0318

---

Conditions: in 1,4-dioxane, 300.65 K
VALUE_KIND: solubility (mole fraction)

>>> recorded_result("On1nnc2ccccc21")
0.0225

---

Settings: in isopentanol, 310.65 K
VALUE_KIND: solubility (mole fraction)

>>> recorded_result("On1nnc2ccccc21")
0.0181

---

Settings: in isopentanol, 280.65 K
VALUE_KIND: solubility (mole fraction)

>>> recorded_result("On1nnc2ccccc21")
0.0114

---

Conditions: in methanol, 293.15 K
VALUE_KIND: solubility (mole fraction)

>>> recorded_result("On1nnc2ccccc21")
0.0336

---

Conditions: in acetonitrile, 298.15 K
VALUE_KIND: solubility (mole fraction)

>>> recorded_result("On1nnc2ccccc21")
0.00449

---

Conditions: in isopentanol, 313.15 K
VALUE_KIND: solubility (mole fraction)

>>> recorded_result("On1nnc2ccccc21")
0.0188

---

Conditions: in toluene, 280.65 K
VALUE_KIND: solubility (mole fraction)

>>> recorded_result("On1nnc2ccccc21")
"1.2e-05"

---

Details: in 1,4-dioxane, 313.15 K
VALUE_KIND: solubility (mole fraction)

>>> recorded_result("On1nnc2ccccc21")
0.0364

---

Settings: in toluene, 288.15 K
VALUE_KIND: solubility (mole fraction)

>>> recorded_result("On1nnc2ccccc21")
"1.99e-05"

---

Conditions: in methanol, 303.15 K
VALUE_KIND: solubility (mole fraction)

>>> recorded_result("On1nnc2ccccc21")
0.0445

---

Conditions: in DMSO, 278.15 K
VALUE_KIND: solubility (mole fraction)

>>> recorded_result("On1nnc2ccccc21")
0.0337

---

Conditions: in methanol, 283.15 K
VALUE_KIND: solubility (mole fraction)

>>> recorded_result("On1nnc2ccccc21")
0.0254

---

Conditions: in 1,4-dioxane, 293.15 K
VALUE_KIND: solubility (mole fraction)

>>> recorded_result("On1nnc2ccccc21")
0.0171

---

Conditions: in isopropanol, 308.15 K
VALUE_KIND: solubility (mole fraction)

>>> recorded_result("On1nnc2ccccc21")
0.0553

---

Conditions: in toluene, 293.15 K
VALUE_KIND: solubility (mole fraction)

>>> recorded_result("On1nnc2ccccc21")
"2.49e-05"

---

Conditions: in acetonitrile, 288.15 K
VALUE_KIND: solubility (mole fraction)

>>> recorded_result("On1nnc2ccccc21")
0.00322

---

Settings: in ethyl acetate, 285.65 K
VALUE_KIND: solubility (mole fraction)

>>> recorded_result("On1nnc2ccccc21")
0.00676

---

Settings: in acetone, 290.65 K
VALUE_KIND: solubility (mole fraction)

>>> recorded_result("On1nnc2ccccc21")
0.0198

---

Conditions: in acetonitrile, 285.65 K
VALUE_KIND: solubility (mole fraction)

>>> recorded_result("On1nnc2ccccc21")
0.00295

---

Conditions: in n-propanol, 285.65 K
VALUE_KIND: solubility (mole fraction)

>>> recorded_result("On1nnc2ccccc21")
0.0362
